# protocol text: Drug concentration in mouse brain at 30 mg/kg, po after 2 hrs
# Assay type: ADME, organism-based
# test parameters: read-out: Ct
readout type: concentration at 2 h (ng/g)
One number for each entry, in ng/g.

Prompt line: Given the compound Cc1c(Nc2c(F)ccc(NS(=O)(=O)CCCF)c2Cl)ccc2ncn(C)c(=O)c12 [TINLORAFENIB] , what is its reported concentration at 2 h?
Response line: 2400

---

# protocol text: AUCinfinity in mouse at 30 mg/kg, po
# Assay type: ADME, organism-based
# test parameters: in vivo
readout type: AUC(0-inf) (µg·h/mL)
Numbers only, in µg·h/mL.

Prompt line: Requested read-out: AUC(0-inf). Entry: "Cc1c(Nc2c(F)ccc(NS(=O)(=O)CCCF)c2Cl)ccc2ncn(C)c(=O)c12"
Response line: 176

---

# protocol text: Protein binding in rat brain assessed as unbound fraction
# Type: ADME, tissue-based
readout type: fraction unbound
Numbers only.

Prompt line: Which fraction unbound value belongs to Cc1c(Nc2c(F)ccc(NS(=O)(=O)CCCF)c2Cl)ccc2ncn(C)c(=O)c12 [TINLORAFENIB] ?
Response line: 0.068

---

# protocol text: Drug concentration in mouse brain at 30 mg/kg, po after 4 hrs
# Type: ADME, organism-based
# test parameters: read-out: Ct
readout type: concentration at 4 h (ng/g)
Answers are plain numbers, in ng/g.

Prompt line: Dear colleague, I am looking for the recorded concentration at 4 h of the following molecule: Cc1c(Nc2c(F)ccc(NS(=O)(=O)CCCF)c2Cl)ccc2ncn(C)c(=O)c12 [TINLORAFENIB]
Response line: 2100

---

# target system: Serine/threonine-protein kinase B-raf (Homo sapiens, UniProt P15056, V600E)
# Sequence (P15056 2-766 V600E limits assumed): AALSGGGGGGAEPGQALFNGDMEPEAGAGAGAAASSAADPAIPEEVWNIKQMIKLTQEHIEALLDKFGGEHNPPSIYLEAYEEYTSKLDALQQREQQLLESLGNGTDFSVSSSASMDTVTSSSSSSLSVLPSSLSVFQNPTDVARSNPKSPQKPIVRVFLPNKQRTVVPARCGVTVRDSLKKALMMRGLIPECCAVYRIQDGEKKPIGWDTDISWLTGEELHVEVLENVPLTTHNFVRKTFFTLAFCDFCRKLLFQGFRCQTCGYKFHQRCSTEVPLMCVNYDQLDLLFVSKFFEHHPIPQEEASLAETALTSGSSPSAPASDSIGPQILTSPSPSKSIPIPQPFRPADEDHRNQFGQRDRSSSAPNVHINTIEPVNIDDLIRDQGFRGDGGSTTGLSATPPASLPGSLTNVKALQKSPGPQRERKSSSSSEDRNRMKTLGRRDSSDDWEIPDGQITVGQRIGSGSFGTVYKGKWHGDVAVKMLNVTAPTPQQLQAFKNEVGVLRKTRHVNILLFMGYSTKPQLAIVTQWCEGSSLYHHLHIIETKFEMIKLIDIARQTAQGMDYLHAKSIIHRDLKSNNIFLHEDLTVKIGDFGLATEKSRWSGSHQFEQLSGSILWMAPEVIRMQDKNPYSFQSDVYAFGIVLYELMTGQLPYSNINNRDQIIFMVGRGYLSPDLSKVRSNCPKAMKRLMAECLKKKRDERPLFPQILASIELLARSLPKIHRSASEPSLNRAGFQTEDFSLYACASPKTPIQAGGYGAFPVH
# protocol text: Inhibition of BRAF V600E mutant in human A-375 cells assessed as reduction in ERK phosphorylation
# Type: cell-based
What pIC50 was measured for each of the following?
Numbers only, as −log10 of the molar value.

Below are worked cases with known answers.
molecule: CCCS(=O)(=O)Nc1ccc(Cl)c(N(C)c2ccc3ncn(C)c(=O)c3c2)c1F
pIC50: 6.75
--
molecule: CCCS(=O)(=O)Nc1ccc(Cl)c(Nc2ccc3ncn(C)c(=O)c3c2)c1F
pIC50: 6.85
--
molecule: Cc1c(Nc2c(F)ccc(NS(=O)(=O)CC3CC3)c2Cl)ccc2ncn(C)c(=O)c12
pIC50: 7.03
--
molecule: CCCS(=O)(=O)Nc1ccc(F)c(Nc2ccc3ncn(C4CC4)c(=O)c3c2C)c1Cl
pIC50: 7.21
--
molecule: CCCS(=O)(=O)Nc1ccc(F)c(Nc2ccc3ncn(C(C)C)c(=O)c3c2C)c1Cl
pIC50: 6.73
--
molecule: CCCS(=O)(=O)Nc1ccc(F)c(Nc2ccc3ncn(CC)c(=O)c3c2C)c1Cl
pIC50: 7.57

Hi there! I need pIC50 for each item below, if you can.
1. Cc1c(Nc2c(F)ccc(NS(=O)(=O)CC(C)C)c2Cl)ccc2ncn(C)c(=O)c12
2. CCCS(=O)(=O)Nc1ccc(F)c(N(C)c2ccc3ncn(C)c(=O)c3c2)c1F
3. CCCS(=O)(=O)Nc1ccc(F)c(Nc2ccc3ncn(C)c(=O)c3c2)c1Cl
4. CCCS(=O)(=O)Nc1ccc(F)c(Nc2ccc3ncn(C)c(=O)c3c2C)c1Cl
5. CCCS(=O)(=O)Nc1ccc(F)c(Nc2ccc3ncn(C)c(=O)c3c2)c1F
6. CCCS(=O)(=O)Nc1ccc(F)c(Nc2ccc3ncn(CC4CC4)c(=O)c3c2C)c1Cl

Response line:
6.91
7.13
7.56
7.45
7.16
6.55

---

# protocol text: Protein binding in dog brain assessed as unbound fraction
# Assay type: ADME, tissue-based, Canis lupus familiaris
readout type: fraction unbound
Numbers only.

Prompt line: State the recorded fraction unbound for this entry: "Cc1c(Nc2c(F)ccc(NS(=O)(=O)CCCF)c2Cl)ccc2ncn(C)c(=O)c12"
Response line: 0.073

---

# protocol text: Drug concentration in mouse brain at 5 mg/kg, po after 4 hrs
# Type: ADME, organism-based
# test parameters: read-out: Ct
readout type: concentration at 4 h (ng/g)
Give bare numbers, in ng/g.

Prompt line: For the compound "Cc1c(Nc2c(F)ccc(NS(=O)(=O)CCCF)c2Cl)ccc2ncn(C)c(=O)c12" , what concentration at 4 h is on record?
Response line: 530

---

# protocol text: Cmax in mouse at 10 mg/kg, po
# Assay type: ADME, organism-based
# test parameters: in vivo
readout type: Cmax (ng/mL)
Give bare numbers, in ng/mL.

Prompt line: Report Cmax for "Cc1c(Nc2c(F)ccc(NS(=O)(=O)CCCF)c2Cl)ccc2ncn(C)c(=O)c12" please.
Response line: 14000

---

# protocol text: Protein binding in mouse brain assessed as unbound fraction
# Assay type: ADME, tissue-based
readout type: fraction unbound

Prompt line: Recorded fraction unbound for "Cc1c(Nc2c(F)ccc(NS(=O)(=O)CCCF)c2Cl)ccc2ncn(C)c(=O)c12" , please?
Response line: 0.087

---

# protocol text: Tmax in mouse at 10 mg/kg, po
# Type: ADME, organism-based
# test parameters: in vivo
readout type: Tmax (h)
Numbers only, in h.

Prompt line: Which Tmax is listed for Cc1c(Nc2c(F)ccc(NS(=O)(=O)CCCF)c2Cl)ccc2ncn(C)c(=O)c12 [TINLORAFENIB] ?
Response line: 1

---

# protocol text: Oral bioavailability in mouse at 30 mg/kg
# Assay type: ADME, organism-based
# test parameters: in vivo
readout type: bioavailability
Units required after the number.

Prompt line: Param item = Cc1c(Nc2c(F)ccc(NS(=O)(=O)CCCF)c2Cl)ccc2ncn(C)c(=O)c12 [TINLORAFENIB] ; retrieve measured bioavailability.
Response line: 130%

---

# protocol text: Apparent permeability across apical to basolateral side in LLC-PK1 cells
# Assay type: ADME, cell-based, Sus scrofa
# test parameters: pig
readout type: Papp A→B (×10⁻⁶ cm/s)
One number for each entry, in ×10⁻⁶ cm/s.

In the examples that follow, each entry is paired with its recorded Papp A→B.
smiles: CCCS(=O)(=O)Nc1ccc(F)c(Sc2ccc3ncn(C)c(=O)c3c2)c1F
Papp A→B / ×10⁻⁶ cm/s: 19
--
smiles: CCCS(=O)(=O)Nc1ccc(F)c(Nc2ccc3ncn(C)c(=O)c3c2)c1Cl
Papp A→B / ×10⁻⁶ cm/s: 39
--
smiles: CCCS(=O)(=O)Nc1ccc(F)c(N(C)c2ccc3ncn(C)c(=O)c3c2)c1F
Papp A→B / ×10⁻⁶ cm/s: 41
--
smiles: CCCS(=O)(=O)Nc1ccc(F)c(Nc2ccc3ncn(C(C)C)c(=O)c3c2C)c1Cl
Papp A→B / ×10⁻⁶ cm/s: 20
--
smiles: CCCS(=O)(=O)Nc1ccc(F)c(Nc2ccc3ncn(C)c(=O)c3c2C)c1Cl
Papp A→B / ×10⁻⁶ cm/s: 28

Please give Papp A→B, item by item, for the list that follows.
1. CCCS(=O)(=O)Nc1ccc(F)c(Nc2ccc3ncn(CC4CC4)c(=O)c3c2C)c1Cl
2. Cc1c(Nc2c(F)ccc(NS(=O)(=O)CCCF)c2Cl)ccc2ncn(C)c(=O)c12

Response line:
[21, 36]

---

# protocol text: Solubility in buffer at pH 7.4
# Type: physicochemical
readout type: solubility (µg/mL)
One number for each entry, in µg/mL.

Prompt line: Look up solubility for this compound: "Cc1c(Nc2c(F)ccc(NS(=O)(=O)CCCF)c2Cl)ccc2ncn(C)c(=O)c12"
Response line: 9.1

---

# target system: Serine/threonine-protein kinase B-raf (Homo sapiens, UniProt P15056, V600E)
# protocol text: Inhibition of 6-His tagged BRAF V600E mutant (445 to 723 residues) (unknown origin)
What IC50 was measured for each of the following?
One number for each entry, in nM.

Answered examples (3):
compound: CCCS(=O)(=O)Nc1ccc(Cl)c(N(C)c2ccc3ncn(C)c(=O)c3c2)c1F
readout type: IC50
result units: nM
reported: 28.4
//
compound: CCS(=O)(=O)Nc1ccc(F)c(Nc2ccc3ncn(C)c(=O)c3c2C)c1Cl
readout type: IC50
result units: nM
reported: 182
//
compound: CCCS(=O)(=O)Nc1ccc(F)c(Nc2ccc3ncn(C(C)C)c(=O)c3c2C)c1Cl
readout type: IC50
result units: nM
reported: 20

Would you be so kind as to report IC50 for each listed record?
1. CCC(C)S(=O)(=O)Nc1ccc(F)c(Nc2ccc3ncn(C)c(=O)c3c2C)c1Cl (stereo unspecified)
2. CCCS(=O)(=O)Nc1ccc(F)c(N(CC)c2ccc3ncn(C)c(=O)c3c2)c1F
3. Cc1c(Nc2c(F)ccc(NS(=O)(=O)CC3CC3)c2Cl)ccc2ncn(C)c(=O)c12

Response line:
77.4
197
46.1

---

# protocol text: Substrate activity at P-gp in LLC-PK1 cells assessed as efflux ratio of apparent permeability from basolateral to apical side over apical to basolateral side
# Format: ADME, cell-based, Sus scrofa
# test parameters: pig
Simple rule here: Ratio less than 2 is T, otherwise F.

compound: CCCS(=O)(=O)Nc1ccc(F)c(Nc2ccc3ncn(C4CC4)c(=O)c3c2C)c1Cl
label value: T

Prompt line: I wonder whether "CCCS(=O)(=O)Nc1ccc(F)c(Nc2ccc3ncn(C(C)C)c(=O)c3c2C)c1Cl" has Ratio below 2. Can you tell?
Response line: T

Prompt line: Bench note: check whether "CCCS(=O)(=O)Nc1ccc(Cl)c(Nc2ccc3ncn(C)c(=O)c3c2)c1F" shows Ratio below 2
Response line: F

Prompt line: Is the reported Ratio for CCC(C)S(=O)(=O)Nc1ccc(F)c(Nc2ccc3ncn(C)c(=O)c3c2C)c1Cl (stereo not given) strictly below 2?
Response line: T

Prompt line: Please let me know if CCCS(=O)(=O)Nc1ccc(F)c(C(=O)c2c[nH]c3ncc(-c4ccc(Cl)cc4)cc23)c1F [VEMURAFENIB] shows Ratio below 2.
Response line: F
